# protocol.details: physchem
# Type: physicochemical
# protocol.conditions: 25 °C, aqueous buffer, thermodynamic from solid, Diclofenac Solubility
endpoint: solubility (mg/mL)
Entry rule: numbers only, all in mg/mL.

Query: Item O=C(O)Cc1ccccc1Nc1c(Cl)cccc1Cl [diclofenac sodium] has what recorded solubility?
Response: 19.7
